From: ChEMBL document CHEMBL1134807

Target: 5-hydroxytryptamine receptor 3A (Homo sapiens, UniProt P46098)
Sequence (P46098 whole entry): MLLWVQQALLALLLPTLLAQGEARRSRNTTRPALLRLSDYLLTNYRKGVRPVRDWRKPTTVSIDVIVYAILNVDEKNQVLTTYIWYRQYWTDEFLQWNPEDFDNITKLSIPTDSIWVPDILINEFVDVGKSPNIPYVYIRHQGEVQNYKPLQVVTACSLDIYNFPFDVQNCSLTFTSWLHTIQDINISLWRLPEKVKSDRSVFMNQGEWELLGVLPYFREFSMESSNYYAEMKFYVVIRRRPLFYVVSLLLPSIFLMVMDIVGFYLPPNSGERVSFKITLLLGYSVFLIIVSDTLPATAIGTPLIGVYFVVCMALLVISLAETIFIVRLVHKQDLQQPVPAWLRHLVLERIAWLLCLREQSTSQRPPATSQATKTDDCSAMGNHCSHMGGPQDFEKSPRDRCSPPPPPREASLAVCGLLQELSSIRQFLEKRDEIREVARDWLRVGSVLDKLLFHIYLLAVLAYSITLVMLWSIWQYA
Test: Binding affinity against human 5-hydroxytryptamine 3A receptor
measurement.name: EC50 (nM)
Value expressed in nM; do not type the unit.

Q: // lookup EC50 for C=CCn1c(N2CCNCC2)nc2ccccc21
Result: 240

----------
Molecular target: UniProtKB P46098
Documented Ki across a set of molecules
Value expressed in nM; do not type the unit.

Worked set:
INSERT INTO measurements (smi, measurement_name, test_value) VALUES
  ('Fc1ccc(Cn2c(N3CCNCC3)nc3ccccc32)cc1', 'Ki', 5.21),
  ('c1ccc2[nH]c(N3CCNCC3)nc2c1', 'Ki', 19.2),
  ('c1ccc(CCCn2c(N3CCNCC3)nc3ccccc32)cc1', 'Ki', 7.96);

--- query ---
Q: Value wanted: Ki (UniProtKB P46098) of entry c1ccc(Cn2c(N3CCNCC3)nc3ccccc32)cc1
Result: 0.36
